Reference for the values: patent US20260242478A1

- Target Or System: T1, Anti-PSMA Fab (SEQ ID NOs: 19, 20)
- T1 construct: Biotinylated Fab captured on neutravidin coated plates in the phage ELISA; also called 006 PSMA Fab
- Assay Details: phage ELISA; biotinylated PSMA Fab on neutravidin plate, bound phage detected with anti-M13 HRP
Reported Endpoint: Phage binding ELISA, Anti-PSMA Fab signal

Binder: SDKWCIPPWMCEVA (Clonal phage of the peptide-180 library) [Phage-2126]
Experimental Result: 1.71
//
Binder: DGLLCRPLWMCQFL (Clonal phage of the peptide-180 library) [Phage-2128]
Experimental Result: 1.71
//
Binder: ILKACIPDWMCEGS (Clonal phage of the peptide-180 library) [Phage-2124]
Experimental Result: 1.71
